Listed next: entries and their corresponding Post-emergence action at 1.25 g/ha against ABUTH in %.
- Test system: Abutilon theophrasti (ABUTH)
- EXPERIMENTAL DETAILS: Post-emergence herbicidal action, greenhouse pot test
- Format: in vivo
- PARTICULARS: 1.25 g/ha, rated visually after about 3 weeks vs untreated controls, 100% = plants have died
READOUT: Post-emergence action at 1.25 g/ha against ABUTH in % (%)

[
  {
    "COMPOUND": "CCOCCOC(=O)COc1ccccc1Oc1cc(-n2c(=O)cc(C(F)(F)F)n(C)c2=O)c(F)cc1[N+](=O)[O-] [I.6-2]",
    "ASSAYED TARGET": "Abutilon theophrasti (ABUTH)",
    "NUMERIC READOUT": 100
  },
  {
    "COMPOUND": "Cn1c(C(F)(F)F)cc(=O)n(-c2cc(Oc3ccccc3OCC(=O)OCC3CCOC3)c(Cl)cc2F)c1=O (stereo not drawn) [I.7-72]",
    "ASSAYED TARGET": "Abutilon theophrasti (ABUTH)",
    "NUMERIC READOUT": 100
  },
  {
    "COMPOUND": "COCCOC(=O)COc1ccccc1Oc1cc(-n2c(=O)cc(C(F)(F)F)n(C)c2=O)c(F)cc1C#N [I.9-1]",
    "ASSAYED TARGET": "Abutilon theophrasti (ABUTH)",
    "NUMERIC READOUT": 100
  }
]
